# Test system: NCI-H460
# test_description: Anti-tumor activity against human NCI-H460 cells assessed as cell viability incubated for 48 hrs by CCK-8 assay
# Type: functional, cell-based
# condition_details: NCI-H460, 48 h
Recorded IC50 values for a group of molecules are listed next.

Answered examples (7):
structure_string	IC50
CN(C)c1ccc([Se]c2c(-c3ccccc3)ncc3ccccc23)cc1	> 100 µM
c1ccc([Se]c2c(-c3cc4ccccc4c4ccccc34)ncc3ccccc23)cc1	> 100 µM
c1ccc([Se]c2c(C3CC3)ncc3ccccc23)cc1	> 100 µM
CC(C)(C)c1ncc2ccccc2c1[Se]c1ccccc1	> 100 µM
COc1ccc([Se]c2c(-c3ccc(Br)cc3)ncc3ccccc23)cc1	> 100 µM
COc1ccc(-c2ncc3ccccc3c2[Se]c2ccccc2)cc1	> 100 µM
COc1ccc([Se]c2c(-c3ccccc3)ncc3cc4c(cc23)OCO4)cc1	> 100 µM

Consider the record given below.
Memo: c1ccc([Se]c2c(-c3ccc(-c4cc(-c5ccc(-c6ncc7ccccc7c6[Se]c6ccccc6)cc5)cc(-c5ccc(-c6ncc7ccccc7c6[Se]c6ccccc6)cc5)c4)cc3)ncc3ccccc23)cc1 , reported IC50: > 100 µM
